Target: Voltage-gated potassium channel subunit beta-2 (Rattus norvegicus) (UniProt P62483)
Sequence (P62483 whole entry, looked up): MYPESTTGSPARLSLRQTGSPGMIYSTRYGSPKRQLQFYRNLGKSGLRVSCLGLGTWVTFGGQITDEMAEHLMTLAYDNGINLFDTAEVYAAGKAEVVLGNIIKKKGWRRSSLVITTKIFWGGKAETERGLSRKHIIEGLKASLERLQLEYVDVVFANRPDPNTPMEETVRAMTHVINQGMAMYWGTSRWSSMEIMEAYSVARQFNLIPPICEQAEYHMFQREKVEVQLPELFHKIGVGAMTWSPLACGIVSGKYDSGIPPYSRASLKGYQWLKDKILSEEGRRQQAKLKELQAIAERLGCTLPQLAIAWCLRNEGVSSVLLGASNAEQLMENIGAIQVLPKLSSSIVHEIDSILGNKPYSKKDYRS
Assay: inhibitors of rat Kvbeta2 reductase activity – biochemical, NADPH fluorescence, primary screen (AID 622);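 note: slope of raw intensity against log time taken from 70 to 1610 s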
Conditions: recombinant KvBeta, 4-cyanobenzaldehyde reduction, at 10 µM, stronger effect = higher value
# fluorescence slope listing for each entry below
Answer with a number only.

Example results:
• CCOC(=O)Nc1ccc2c(c1)N(C(=O)CCN1CCOCC1)c1ccccc1S2 = -0.37
• O=C(/C=C/N1CCOCC1)c1ccc(-c2ccccc2)cc1 = -0.398
• CN(C)c1ccc(C2C3=C(CCCC3=O)OC3=C2C(=O)CCC3)cc1 = -0.37
• COc1ccccc1OCc1ccc(C(=O)NC(C)(C)C)o1 = -0.601
• CCOC(=O)c1cccc(NC(=O)CCn2nnc3ccccc32)c1 = -0.457

Moving on to the next molecule.
Exercise: Tell us which fluorescence slope value is on record for Cc1noc(/C=C/N(C)C)c1S(=O)(=O)N1CCCC(C(=O)N2CCCCC2)C1 (stereo unspecified)
Key: -0.516

----------
Experiment: blockers of RIG-like receptor reporter activation – cell-based, Sendai virus stimulus, luciferase, 10K MLSCN set, TLR/RLR signaling modifier project, primary screen (AID 602276);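 note: firefly luciferase from ISG56 promoter only with Renilla not read in this screen; 0% = Sendai virus plus DMSO and 100% = medium plus DMSO without virus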
Details: HEK293 RL24 IRF3 luciferase reporter, at 10 µM, stronger effect = higher value
The source made the active and inactive calls.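 Rule for the calls: active = inhibition at or above 50% at 10 µM; inactive = inhibition below 50%.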
# inhibition listing for each entry below

Example results:
- CC(=O)Oc1ccc(CCC(C)OC(C)=O)cc1 (stereo unspecified): 14.9% (inactive)
- Cc1ccc(-c2nnn(CC(=O)N(CC3CCCO3)C(C(=O)NC(C)(C)C)c3ccc(F)cc3)n2)o1 (stereo unspecified): 9.86% (inactive)
- O=S(=O)(c1ccc(F)cc1)N1CCC(N2CCCC2)CC1: 6.84% (inactive)
- CCCc1cc(N2CCCC2)n2nc(C)c(-c3ccccc3)c2n1: 14% (inactive)
- O=C1NCC(COCc2ccccc2)O1 (stereo unspecified): 8.89% (inactive)

Moving on to the next molecule.
Exercise: Tell us which inhibition value is on record for CCOC(=O)CSc1nnc(CNC(=O)c2ccc(S(=O)(=O)N3CCCC3)cc2)n1C
Key: 12.8% (inactive)

----------
Assay: blockers of RIG-like receptor reporter activation – cell-based, Sendai virus stimulus, luciferase, 10K MLSCN set, TLR/RLR signaling modifier project, primary screen (AID 602276);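 note: firefly luciferase from ISG56 promoter only with Renilla not read in this screen; 0% = Sendai virus plus DMSO and 100% = medium plus DMSO without virus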
Settings: HEK293 RL24 IRF3 luciferase reporter, at 10 µM, stronger effect = higher value
Observation Type: inhibition (%)
Reply with just the number (in %).

Example results:
• CCN(CC)Cc1nc2c(c(=O)[nH]1)C1(CCCCC1)Cc1ccccc1-2 = 10
• CCN(CC)S(=O)(=O)c1ccc(NC(=O)c2cccc3c2C(=O)N(CCOC)C3)cc1 = 10.3
• Cc1ccc(C)c(N2CCN(Cc3nnnn3C3CCCCC3)CC2)c1 = 11.6
• Fc1ccc(-c2nnc3ccc(N4CCCC4)nn23)cc1 = 3.21

Exercise: Tell us which inhibition value is on record for COc1ccc(CC(=O)NCc2cccs2)cc1
Key: 31

Exercise: Tell us which inhibition value is on record for Cc1ccc(-c2nc3cc(N)ccc3o2)cc1
Key: 2.48

----------
Assay: inhibitors of TNFa-induced NFkB p65 translocation, primary screen, imaging, HUVEC, MLSMR starter and 10KST1 sets (AID 438);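 note: compound added about 3h40 before a 20 min TNFalpha stimulation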
Conditions: HUVEC TNFa-induced p65 nuclear translocation; measured here: nuclei count (cytotoxicity indicator), at 2.08 µM
Observation Type: cell count
Answer with a number only.

Example results:
- CC(NS(=O)(=O)c1ccc(OCC(=O)N2CCOCC2)c(Cl)c1)c1ccccc1 (stereo unspecified): 338
- CC(C)CN(CC(C)C)C(=O)C12CCC(C)(C(=O)C1)C2(C)C (stereo unspecified): 720
- O=c1[nH]c(SCc2cc(=O)n3ccccc3n2)nc2c1CCC2: 681
- O=c1c2nnn(Cc3ccc(Cl)cc3)c2ncn1Cc1ccc(F)cc1: 608
- Cc1cc(C)n2nc(SCC(=O)N(C)c3ccccc3)nc2n1: 370

Moving on to the next molecule.
Exercise: Tell us which cell count value is on record for O=C(Cn1nnc(-c2cccs2)n1)OC1CCCCC1
Key: 298

----------
Test: endothelial E-selectin expression blockers – imaging, HUVEC, immunofluorescence, MLSMR starter and 10KST1 sets, primary screen (AID 487);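 for inhibition: signal is fraction of cell area covered by stained E-selectin grains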
Conditions: HUVEC TNFalpha-induced E-selectin immunofluorescence imaging, at 2 µM; stronger effect = higher value
# inhibition listing for each entry below
Reply with just the number (in %).

Example results:
- NC(=O)C1(N2CCCCC2)CCN(CC(=O)Nc2cc(Cl)ccc2Cl)CC1: 26.7
- COc1ccc(CN2C(=O)CN=C2Nc2ccc(C)cc2C)cc1: -3.6

Exercise: Tell us which inhibition value is on record for COc1ccc(-c2nc(SC)n(S(=O)(=O)c3ccccc3)n2)cc1
Key: -122

Exercise: Tell us which inhibition value is on record for COCCn1nnnc1SCC(=O)N1CCCCC1
Key: 6.2

Exercise: Tell us which inhibition value is on record for COc1cccc(NC(=O)c2nnn(Cc3ccc(Br)cc3F)c2N)c1
Key: -61.5

Exercise: Tell us which inhibition value is on record for Cc1cc2c(c(=O)n1C)C(Cc1ccccc1)C(C#N)=C(N)O2 (stereo unspecified)
Key: -61.8

Exercise: Tell us which inhibition value is on record for COc1ccccc1NC(=O)NC1(C(=O)N2CCC(O)CC2)CCCCC1
Key: 1.6

----------
Assay: reduction of polyQ htt aggregates in cells – imaging, exon1htt(103Q)mCFP cells, high-content imaging, primary screen (AID 483);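 note: compound exposure lasted 3 days before fixation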
Settings: exon1htt(103Q)mCFP cell line, aggregate imaging, at 2 µM; stronger effect = higher value
Observation Type: inhibition of aggregation (%)
Reply with just the number (in %).

* COCCNc1nc(C(C)(C)C)nc2c1nnn2Cc1ccccc1Cl | 1
* CNC(=O)CSc1nc2c(c(=O)n(C)c(=O)n2C)n1Cc1ccc(C)cc1 | 15.9
* COc1ccccc1OCc1ccc(C(=O)N2CCN(C(=O)c3ccco3)CC2)cc1 | 6

Exercise: Tell us which inhibition of aggregation value is on record for CCc1cc2c(=O)c(-c3ccc4c(c3)OCCO4)coc2cc1OC(=O)c1ccco1
Key: 4.7

Exercise: Tell us which inhibition of aggregation value is on record for O=C(COC(=O)c1cc(S(=O)(=O)N2CCOCC2)cs1)c1ccccc1
Key: -9.6

Exercise: Tell us which inhibition of aggregation value is on record for O=C1CCCc2c1nn(-c1ccccc1)[n+]2[O-]
Key: -12.3

Exercise: Tell us which inhibition of aggregation value is on record for COc1cc(-c2nc(-c3ccncc3)no2)cc(OC)c1OC
Key: -1.8

Exercise: Tell us which inhibition of aggregation value is on record for CCC(=O)N1C(=O)CCN(C(C)=O)c2ccccc21
Key: -2.5

----------
Assay: endothelial E-selectin expression blockers – imaging, HUVEC, immunofluorescence, MLSMR starter and 10KST1 sets, primary screen (AID 487);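 for nuclei count: 100% = median nuclei count of all wells on the same plate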
Conditions: HUVEC TNFalpha-induced E-selectin immunofluorescence imaging, at 2 µM; measured here: cell number, toxicity
# nuclei count listing for each entry below
Reply with just the number (in %).

* CCCCc1cc(=O)oc2c(CN3CCCC3)c(O)c(Cl)cc12 | 89.4

Exercise: Tell us which nuclei count value is on record for COc1ccc(-c2noc(CCC(=O)Nc3nc4ccccc4s3)n2)cc1
Key: 106

Exercise: Tell us which nuclei count value is on record for Cn1c(C(=O)NCCC2=CCCCC2)cc2c(=O)n3ccccc3nc21
Key: 71.3

Exercise: Tell us which nuclei count value is on record for CC(=O)c1ccc(NC(=O)CCc2c(C)nc3ncnn3c2C)cc1
Key: 113

Exercise: Tell us which nuclei count value is on record for Cn1c(C(=O)NCCCN2CCN(c3ccc(F)cc3)CC2)cc2c(=O)n(C)c3ccccc3c21
Key: 118

Exercise: Tell us which nuclei count value is on record for CCCN(CCO)Cc1cccc(Br)c1
Key: 109

----------
Test: reduction of polyQ htt aggregates in cells – imaging, exon1htt(103Q)mCFP cells, high-content imaging, primary screen (AID 483);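 note: compound exposure lasted 3 days before fixation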
Details: exon1htt(103Q)mCFP cell line, aggregate imaging, at 2 µM; stronger effect = higher value
# inhibition of aggregation listing for each entry below
Reply with just the number (in %).

Example results:
* CN(CC(=O)Nc1cccnc1)S(=O)(=O)c1cc(Cl)ccc1Cl | -7.7
* CCc1ccccc1NC(=O)C(CC)Sc1nc2cc3c(cc2c(=O)n1Cc1ccco1)OCO3 (stereo unspecified) | -21.1
* COC(=O)Cn1c(=NC(=O)CSCC(=O)Nc2cc(C)on2)sc2ccccc21 | 2.6
* CCn1c(SCC(=O)Nc2ccc3c(c2)OCO3)nnc1-c1cnccn1 | 1.7
* CC1CN(c2c3c(nc4ncnn24)CCCC3)CC(C)O1 (stereo unspecified) | -14.4

Exercise: Tell us which inhibition of aggregation value is on record for N#Cc1c(N2C(=O)C3C4C=CC(C4)C3C2=O)sc2c1CCC2 (stereo unspecified)
Key: -12.7

Exercise: Tell us which inhibition of aggregation value is on record for CC(=O)c1cccc(NC(=O)NCc2ccco2)c1
Key: -4.5

Exercise: Tell us which inhibition of aggregation value is on record for Clc1c(CSc2nc3ccccc3o2)nc2sccn12
Key: 7.5

Exercise: Tell us which inhibition of aggregation value is on record for COc1ccccc1NC(=O)N(Cc1ccco1)Cc1cc2c(C)ccc(C)c2[nH]c1=O
Key: 2.5

Exercise: Tell us which inhibition of aggregation value is on record for O=C(Nc1ccc2c(c1)OCO2)c1nn(-c2ccccc2)c(=O)c2ccccc12
Key: -7.3

Exercise: Tell us which inhibition of aggregation value is on record for COc1cc(NC(=O)C2CC(c3cccc(OC)c3OC)=NO2)cc(OC)c1OC (stereo unspecified)
Key: -18.4
